# ASSAY SYSTEM: Voltage-gated potassium channel subunit beta-2 (Rattus norvegicus)
# MEASUREMENT DESCRIPTION: KvBeta positive modulators, primary screen, biochemical, NADPH fluorescence (AID 623);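 also: fluorescence intensity change per second fitted from 20 to 320 s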
# TEST SETTINGS: Recombinant KvBeta, NADPH fluorescence decrease slope, 10 min; at 10 µM; active compounds read low
RECORDED METRIC: NADPH fluorescence slope

• COc1ccc(/C(O)=C2/C(=O)C(=O)N(Cc3ccco3)C2c2cccs2)cc1 (configuration not stated) = -4.8e-05
• Cc1ccc2nsnc2c1S(=O)(=O)N(Cc1cc2cccc(C)c2[nH]c1=O)CC1CCCO1 (configuration not stated) = -6.5e-05
• O=C(CSc1nnc(Cc2cc(=O)[nH]c(=O)[nH]2)n1-c1ccccc1)NCC1CCCO1 (configuration not stated) = 3.5e-05
• COCCN(Cc1cc2cc3c(cc2n2nnnc12)OCO3)C(=O)c1ccccc1F = -3.2e-05
• CCOC(=O)C(C)n1cnc2c(nnn2Cc2ccc(C)cc2)c1=O (configuration not stated) = -0.000137
• COc1ccccc1NC(=O)C1=C(C)Nc2nc(CCCO)nn2C1c1cccnc1 (configuration not stated) = -3.9e-05
• CCOC(=O)Cn1c(=O)c(-c2ccccc2N)nc2ccccc21 = -3.7e-05
• Cc1cc(=O)oc(C)c1C(=O)NC1CC(C)(C)NC(C)(C)C1 = -1.7e-05
• CC(C)c1[nH]c(=O)c(C#N)c2c1CSC(C)(C)C2 = 3.3e-05
• CC(NC(=O)Nc1cccnc1)(C(F)(F)F)C(F)(F)F = -0.000301
• CCOc1ccc(-c2nc(C#N)c(NCC(C)C)o2)cc1 = -8e-05
• C=CCn1c2ccccc2c2nnc(SCC(=O)NC(C(=O)OC)C(C)C)nc21 (configuration not stated) = -0.000127
• Cn1c(NCc2cccnc2)nc2c1c(=O)n(Cc1ccccc1F)c(=O)n2C = -6e-05
• COc1ccc(S(=O)(=O)C(C#N)c2nc3ccccc3nc2N2CCCC(C)C2)cc1 (configuration not stated) = 7.1e-06
• CNc1oc(-c2ccccc2Cl)nc1C#N = -4.5e-05
• CCOC(=O)c1c(C)[nH]c(C(=O)COC(=O)c2ccc(F)c(S(=O)(=O)N3CCOCC3)c2)c1C = -5.1e-05
• O=C(Nc1nc(-c2ccc(S(=O)(=O)N3CCCC3)cc2)cs1)C1COc2ccccc2O1 (configuration not stated) = -2.5e-05
• O=C(NCc1ccco1)C1(S(=O)(=O)c2ccc(Cl)cc2)CC1 = 2e-05
• CC1(C)Cc2[nH]c(=O)c(C#N)cc2CS1 = -0.000124
• O=C(Nc1cccc(-c2nnc(-c3ccccc3)o2)c1)C1CCCCC1 = -1.7e-05
• O=S1(=O)N=C(Nc2nc3c(s2)CCCC3)c2ccccc21 = 5.2e-05
• Cn1c(SCCN2CCCCC2)nnc1-c1ccccc1Br = -3.5e-05
